Values were extracted from ChEMBL document CHEMBL1145638.

Endpoint: IC50. System: UniProt:Q9Y2R2. Items follow.
Sequence (Q9Y2R2 whole entry): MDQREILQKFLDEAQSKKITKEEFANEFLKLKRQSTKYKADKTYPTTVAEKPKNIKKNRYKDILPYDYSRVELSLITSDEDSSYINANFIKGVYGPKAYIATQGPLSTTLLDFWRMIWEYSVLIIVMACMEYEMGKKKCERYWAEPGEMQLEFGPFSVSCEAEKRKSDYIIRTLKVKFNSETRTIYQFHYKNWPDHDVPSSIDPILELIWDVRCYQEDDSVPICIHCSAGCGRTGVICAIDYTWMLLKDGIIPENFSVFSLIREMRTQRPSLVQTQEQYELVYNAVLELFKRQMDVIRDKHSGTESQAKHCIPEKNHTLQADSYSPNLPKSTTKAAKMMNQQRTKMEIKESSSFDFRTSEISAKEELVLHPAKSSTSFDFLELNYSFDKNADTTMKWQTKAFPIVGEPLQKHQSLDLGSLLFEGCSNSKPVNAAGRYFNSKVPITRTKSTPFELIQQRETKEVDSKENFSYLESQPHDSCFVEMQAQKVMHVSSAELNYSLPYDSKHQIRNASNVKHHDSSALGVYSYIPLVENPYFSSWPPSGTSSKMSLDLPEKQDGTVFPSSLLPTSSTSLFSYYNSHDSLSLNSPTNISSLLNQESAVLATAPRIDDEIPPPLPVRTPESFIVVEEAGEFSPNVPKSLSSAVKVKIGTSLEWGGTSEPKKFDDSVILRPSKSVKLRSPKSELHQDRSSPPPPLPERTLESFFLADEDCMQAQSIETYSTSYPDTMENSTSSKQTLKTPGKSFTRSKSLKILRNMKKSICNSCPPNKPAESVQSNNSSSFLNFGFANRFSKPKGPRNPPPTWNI
ENDPOINT: IC50 (µM)

| MOLECULE | ENDPOINT | ENDPOINT_RESULT |
| --- | --- | --- |
| CC(C(=O)O)N1C(=O)/C(=C/C=C/c2ccco2)SC1=S (stereo not drawn) | IC50 | 2.5 |
| COC(=O)c1cc(-c2ccc(/C=C3\SC(=O)N(CCC(=O)O)C3=O)o2)ccc1O | IC50 | 4.3 |
| COC(=O)c1cc(-c2ccc(/C=C3\SC(=O)N(CC(=O)O)C3=O)s2)ccc1O | IC50 | 18 |
| O=C(O)CN1C(=O)S/C(=C\c2ccc(-c3ccc(O)c(C(=O)O)c3)o2)C1=O | IC50 | 5.6 |
| COC(=O)CN1C(=O)S/C(=C\c2ccc(-c3ccc(O)c(C(=O)O)c3)o2)C1=O | IC50 | 4.8 |
| Cc1ccc(NC(=O)CN2C(=O)S/C(=C\c3cccn3-c3cccc(C(=O)O)c3)C2=O)c(C)c1 | IC50 | 1 |
| CC(C)C(C(=O)O)N1C(=O)/C(=C/C=C/c2ccco2)SC1=S (stereo not drawn) | IC50 | 1.9 |
| COC(=O)CCN1C(=O)S/C(=C\c2ccc(-c3ccc(O)c(C(=O)OC)c3)o2)C1=O | IC50 | 44 |
| O=C(O)CN1C(=O)S/C(=C\c2ccc(-c3ccc(O)c(C(=O)O)c3)s2)C1=O | IC50 | 2.8 |

(I) O=C(O)CN1C(=O)/C(=C/c2ccc(-c3ccc(O)c(C(=O)O)c3)o2)SC1=S
(II) Cc1ccc(NC(=O)CN2C(=O)S/C(=C\c3ccc(-c4cccc(C(=O)O)c4C)o3)C2=O)cc1 (stereo in doubt; form 2)
(III) O=C(O)CCN1C(=O)S/C(=C\c2ccc(-c3ccc(O)c(C(=O)O)c3)s2)C1=O
(IV) O=C(O)CCN1C(=O)/C(=C\c2ccc(-c3nc4ccccc4s3)o2)SC1=S
(V) COC(=O)c1cc(-c2ccc(/C=C3\SC(=O)N(CCC(=O)O)C3=O)s2)ccc1O
Sort low-to-high on IC50, please. # answer = labels listed in requested order
V, IV, II, III, I
